All values here come from paper doi:10.1101/2025.01.30.635627v1.

assay.target: EEF1A2 (Homo sapiens)
Sequence (Q05639 2-463): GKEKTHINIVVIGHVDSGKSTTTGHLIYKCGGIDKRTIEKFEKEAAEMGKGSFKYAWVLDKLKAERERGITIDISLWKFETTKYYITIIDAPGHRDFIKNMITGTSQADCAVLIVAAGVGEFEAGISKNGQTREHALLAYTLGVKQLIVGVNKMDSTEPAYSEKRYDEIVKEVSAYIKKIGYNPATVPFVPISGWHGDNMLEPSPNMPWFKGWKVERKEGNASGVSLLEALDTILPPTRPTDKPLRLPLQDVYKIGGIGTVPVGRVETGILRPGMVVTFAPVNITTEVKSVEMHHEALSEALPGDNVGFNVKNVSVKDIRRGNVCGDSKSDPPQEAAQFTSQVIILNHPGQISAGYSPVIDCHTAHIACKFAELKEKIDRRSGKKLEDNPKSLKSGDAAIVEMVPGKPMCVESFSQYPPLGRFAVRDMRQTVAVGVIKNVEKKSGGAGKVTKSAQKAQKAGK
protocol: decryptC competitive reactive cysteine profiling in intact cells, LC-MS/MS
Type: cell-based
condition.details: covalent; C31; […] h incubation; range over MiaPaCa-2, NCI-H23 and ASPC1 cells
pEC50: −log10 of the molar value.
property.label: pEC50

**Query** Recorded pEC50 for C=C(F)C(=O)N1CCN(c2nc(OC[C@@H]3CCCN3C)nc3c2CCN(c2cccc4cccc(Cl)c24)C3)C[C@@H]1CC#N , please?
**Result** 5.52 to 6.00
